# EXPERIMENTAL SYSTEM: Aspartate--tRNA(Asp/Asn) ligase (Mycobacterium tuberculosis (strain ATCC 25618 / H37Rv)) (UniProt P9WFW3)
# Sequence (P9WFW3 whole entry): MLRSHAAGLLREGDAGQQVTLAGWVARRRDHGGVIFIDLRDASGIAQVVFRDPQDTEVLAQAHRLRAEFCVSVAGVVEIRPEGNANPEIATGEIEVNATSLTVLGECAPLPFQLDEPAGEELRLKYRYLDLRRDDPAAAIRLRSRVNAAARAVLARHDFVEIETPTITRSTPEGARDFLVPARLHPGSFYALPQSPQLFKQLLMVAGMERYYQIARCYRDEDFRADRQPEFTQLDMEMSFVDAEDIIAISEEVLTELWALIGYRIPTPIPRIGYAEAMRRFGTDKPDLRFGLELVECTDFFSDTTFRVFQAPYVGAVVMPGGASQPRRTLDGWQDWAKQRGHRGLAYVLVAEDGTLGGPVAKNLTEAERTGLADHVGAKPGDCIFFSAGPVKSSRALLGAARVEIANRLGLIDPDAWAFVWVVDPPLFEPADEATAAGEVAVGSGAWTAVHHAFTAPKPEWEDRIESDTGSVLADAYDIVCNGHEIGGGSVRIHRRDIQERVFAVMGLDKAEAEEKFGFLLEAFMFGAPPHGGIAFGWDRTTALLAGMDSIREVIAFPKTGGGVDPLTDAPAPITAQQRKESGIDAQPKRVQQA
# ASSAY PROCEDURE: Assay for Asp RNA synthetase-1 from Mycobacterium tuberculosis
# Type: functional
# Design: scale not given: in the data most compounds retested in dose-response had high values
# RUN PARAMETERS: 30 µM
READOUT KIND: Percent Effect

Item: Fc1cccc(CN2CCC(c3n[nH]c4ncccc34)CC2)c1F | Percent Effect: -3.17%

For record CS(=O)(=O)NCC1CCCN(C(=O)c2cc3ccccc3o2)C1 (stereo unspecified) the listed Percent Effect is 3.19%

The recorded Percent Effect for CN(C)c1ncccc1CNS(=O)(=O)c1ccccc1F is 4.63%

// field: Percent Effect; key: CN(Cc1cccc(F)c1)S(=O)(=O)N1CCOCC1 ; value = -3.02%

Noted for Cc1nccn1-c1nccnc1C1CCN(Cc2ccc(F)cc2)CC1 : its Percent Effect reads -0.338%

Consider CCN1CC2(CC1=O)CN(C(C)=O)CCN(C(=O)c1ccco1)C2 (stereo unspecified) . Its measured Percent Effect is -3.81%

The compound listed as O=C(CSC1CCc2ccccc2NC1=O)NCCc1ccco1 (stereo unspecified) has a reported Percent Effect of -3.17%

GET /value?item= COc1ccc(CN2CC[C@H](NC(C)=O)[C@@H](O)CC2)c(OC)c1 &field=Percent Effect returns 3.53%

Sure, the documented Percent Effect for CS(=O)(=O)NC[C@]12COC[C@H]1CN(C(=O)Cc1ccccc1F)C2 is 6.16%

Entry Cc1csc(CCCNC(=O)[C@H]2CNC[C@@H](C(=O)N3CCCC3)C2)n1 , Percent Effect reported as -3.08%

The reported value for O=C(CN1CCCCC1Cn1cncn1)NCCc1ccc(F)cc1 (stereo unspecified) in terms of Percent Effect is 3.25%
